Reference source: patent US8143293B2

target.of.assay: BaF3 cells transfected with T315I p210 BCR-Abl (Homo sapiens, UniProt P00519, T315I, cells depend on it)
Construct: fused on or other part: P11274 (Breakpoint cluster region protein)
protocol.summary: Ba/F3 p210 T315I whole cell proliferation assay
Assay type: cell-based
condition.description: 72 hours, Cell Titer Blue; read-out: Whole Cell Antiproliferation IC50, Ba/F3 p210 T315I whole cell proliferation assay
property: GI50

Example results:
compound: CCc1cncc(NC(=O)Nc2ccc(Oc3ccnc(-c4cnn(C)c4)c3)cc2F)c1 [Example 32]
property: GI50
result: < 100 nM
--
compound: Cc1c(NC(=O)Nc2ccc(Oc3ccnc(-c4cnn(C)c4)c3)cc2F)cnn1C(C)C [Example 19]
property: GI50
result: < 10000 nM
--
compound: Cn1cc(-c2cc(Oc3ccc(NC(=O)Nc4nnc(C(C)(C)C)s4)c(F)c3)ccn2)cn1 [Example 11]
property: GI50
result: < 100 nM

Quick one: give measured GI50 for CN(C)CCn1nc(C(C)(C)C)cc1NC(=O)Nc1ccc(Oc2ccnc(-c3cnn(C)c3)c2)cc1F [Example 12]
< 100 nM

Assign GI50 to the following record: Cn1cc(-c2cc(Oc3ccc(NC(=O)NC4CCN(C(C)(C)C)C4)c(F)c3)ccn2)cn1 (stereo not drawn) [Example 36]
< 100000 nM

Note GI50 for the compound shown: Cc1c(C(C)(C)C)noc1NC(=O)Nc1ccc(Oc2ccnc(-c3cnn(C)c3)c2)cc1F [Example 31]
< 100 nM

====

target.of.assay: BaF3 cells transfected with T315I p210 BCR-Abl (Homo sapiens, UniProt P00519, T315I, cells depend on it)
Construct: fused on or other part: P11274 (Breakpoint cluster region protein)
protocol.summary: Ba/F3 p210 T315I whole cell proliferation assay
Format: cell-based
condition.description: 72 hours, Cell Titer Blue; read-out: Whole Cell Antiproliferation IC50, Ba/F3 p210 T315I whole cell proliferation assay
# GI50 per entry

compound: Cc1nn(C(C)C)cc1NC(=O)Nc1ccc(Oc2ccnc(-c3cnn(C)c3)c2)cc1F
result: < 1000 nM

compound: Cc1c(Oc2ccnc(-c3cnn(C)c3)c2)ccc(NC(=O)Nc2cnn(C(C)(C)C)c2)c1F
result: < 100 nM

compound: Cn1cc(-c2cc(Oc3ccc(NC(=O)Nc4cc(C(C)(C)C)on4)c(F)c3)ccn2)cn1
result: < 100 nM

For the compound Cc1c(NC(=O)Nc2ccc(Oc3ccnc(-c4cnn(C)c4)c3)cc2F)cnn1C1CCCC1 , report GI50.
< 1000 nM

Supply measured GI50 of Cn1cc(-c2cc(Oc3ccc(NC(=O)Nc4cnn(C(C)(C)C)c4)c(F)c3)ccn2)cn1 in your reply.
< 100 nM

Using the record for Cn1cc(-c2cc(Oc3ccc(NC(=O)Nc4cnn(C(C)(C)C)c4)c(F)c3F)ccn2)cn1 , state its measured GI50.
< 100 nM

Look up GI50 of Cn1cc(-c2cc(Oc3ccc(NC(=O)Nc4cc(C(F)(F)F)nn4C)c(F)c3)ccn2)cn1 and report it.
< 1000 nM

Please give measured GI50 of the following entry: Cn1cc(-c2cc(Oc3ccc(NC(=O)Nc4cnn(C(C)(C)C)c4C(F)(F)F)c(F)c3)ccn2)cn1
< 1000 nM

Give GI50 for Cn1cc(-c2cc(Oc3ccc(NC(=O)NC4CC(=O)N(C(C)(C)C)C4)c(F)c3)ccn2)cn1 (stereo not shown)
< 100000 nM

Give the reported GI50 for this compound. Cn1cc(-c2cc(Oc3ccc(NC(=O)Nc4cc(C5CC5)nn4C)c(F)c3)ccn2)cn1
< 1000 nM

Could you please provide reported GI50 for CC(C)n1cc(NC(=O)Nc2ccc(Oc3ccnc(-c4cnn(C)c4)c3)cc2F)c(C(F)(F)F)n1 ? Thanks!
< 100 nM

Give GI50 for Cc1oc(C(C)(C)C)cc1NC(=O)Nc1ccc(Oc2ccnc(-c3cnn(C)c3)c2)cc1F
< 1000 nM

State its GI50 for this compound: Cn1cc(-c2cc(Oc3ccc(NC(=O)Nc4cnc(C(C)(C)C)nc4N4CCOCC4)c(F)c3)ccn2)cn1
< 1000 nM

Consider the compound Cn1cc(-c2cc(Oc3ccc(NC(=O)Nc4cccc(C(F)(F)F)c4)c(F)c3)ccn2)cn1 . State its measured GI50.
< 100 nM

Specify measured GI50 for Cc1ncc(C(F)(F)F)cc1NC(=O)Nc1ccc(Oc2ccnc(-c3cnn(C)c3)c2)cc1F .
< 100 nM

Read the entry Cn1cc(-c2cc(Oc3ccc(NC(=O)Nc4cc(C(F)(F)F)cnc4-c4cnn(C)c4)c(F)c3)ccn2)cn1 and write its reported GI50.
< 100 nM

Fill in GI50 for record Cc1c(NC(=O)Nc2ccc(Oc3ccnc(-c4cnn(C)c4)c3)cc2F)cnn1C(C)(C)C
< 1000 nM

Provide GI50 value for the following compound: CC(C)c1cncc(NC(=O)Nc2ccc(Oc3ccnc(-c4cnn(C)c4)c3)cc2F)c1
< 100 nM

# return recorded GI50 for entry Cc1cc(NC(=O)Nc2ccc(Oc3ccnc(-c4cnn(C)c4)c3)cc2F)nn1C(C)(C)C
< 100000 nM

Hello, please tell me recorded GI50 for this one: Cn1cc(-c2cc(Oc3ccc(NC(=O)Nc4cc(C(F)(F)F)no4)c(F)c3)ccn2)cn1
< 1000 nM

Give the value of GI50 reported for the following: Cn1cc(-c2cc(Oc3ccc(NC(=O)Nc4cc(C(C)(C)C)no4)c(F)c3F)ccn2)cn1
< 100 nM

Indicate its recorded GI50; the compound in question is CC(C)n1cnc(NC(=O)Nc2ccc(Oc3ccnc(-c4cnn(C)c4)c3)cc2F)c1
< 1000 nM

Recall and state the measured GI50 for Cn1cc(-c2cc(Oc3ccc(NC(=O)Nc4cc(C(F)(F)F)c[nH]c4=O)c(F)c3)ccn2)cn1 .
< 100 nM

====

target.of.assay: BaF3 cells transfected with wild type p210 BCR-Abl (Homo sapiens)
Construct: fused on or other part: P11274 (Breakpoint cluster region protein)
protocol.summary: Ba/F3 p210 whole cell proliferation assay
Type: cell-based
condition.description: 72 hours, Cell Titer Blue; read-out: Whole Cell Antiproliferation IC50, Ba/F3 p210 whole cell proliferation assay
property: GI50

compound: Cn1cc(-c2cc(Oc3ccc(NC(=O)Nc4cc(C(C)(C)C)on4)c(F)c3)ccn2)cn1 [Example 4]
GI50: < 100 nM
--
compound: CC(C)n1cc(NC(=O)Nc2ccc(Oc3ccnc(-c4cnn(C)c4)c3)cc2F)c(C(F)(F)F)n1 [Example 18]
GI50: < 100 nM
--
compound: Cn1cc(-c2cc(Oc3ccc(NC(=O)Nc4cccc(C(F)(F)F)c4)c(F)c3)ccn2)cn1 [Example 3]
GI50: < 100 nM
--
compound: Cc1cc(NC(=O)Nc2ccc(Oc3ccnc(-c4cnn(C)c4)c3)cc2F)nn1C(C)(C)C [Example 38]
GI50: < 1000 nM
--
compound: Cn1cc(-c2cc(Oc3ccc(NC(=O)NC4CC(=O)N(C(C)(C)C)C4)c(F)c3)ccn2)cn1 (stereo not drawn) [Example 35]
GI50: < 1000 nM

Tell me GI50 reported for Cn1cc(-c2cc(Oc3ccc(NC(=O)Nc4cncc(C(F)(F)F)c4)cc3)ccn2)cn1 [Example 6]
< 100 nM

Look up and state reported GI50 for Cn1cc(-c2cc(Oc3ccc(NC(=O)Nc4ccn(C(C)(C)C)c4)c(F)c3)ccn2)cn1 [Example 30]
< 100 nM

Report GI50 for Cn1cc(-c2cc(Oc3ccc(NC(=O)Nc4nc5ccc(F)cc5s4)c(F)c3)ccn2)cn1 [Example 29]
< 1000 nM

State, in one line, measured GI50 of Cn1cc(-c2cc(Oc3ccc(NC(=O)Nc4cc(C(F)(F)F)no4)c(F)c3)ccn2)cn1 [Example 7]
< 100 nM

Return the recorded GI50 value; entry: CC(C)c1cncc(NC(=O)Nc2ccc(Oc3ccnc(-c4cnn(C)c4)c3)cc2F)c1 [Example 22]
< 100 nM

Note GI50 for the compound shown: Cc1c(NC(=O)Nc2ccc(Oc3ccnc(-c4cnn(C)c4)c3)cc2F)cnn1C(C)(C)C [Example 10]
< 100 nM

// fetch GI50 given entry Cc1nn(C(C)C)cc1NC(=O)Nc1ccc(Oc2ccnc(-c3cnn(C)c3)c2)cc1F [Example 20]
< 100 nM

Supply GI50 value. Item: Cc1c(C(C)(C)C)noc1NC(=O)Nc1ccc(Oc2ccnc(-c3cnn(C)c3)c2)cc1F [Example 31]
< 100 nM

Read off the recorded GI50 for Cn1cc(-c2cc(Oc3ccc(NC(=O)NC4CCN(C(C)(C)C)C4)c(F)c3)ccn2)cn1 (stereo not drawn) [Example 36]
< 10000 nM

Input Cn1cc(-c2cc(Oc3ccc(NC(=O)Nc4cc(C(F)(F)F)cnc4-c4cnn(C)c4)c(F)c3)ccn2)cn1 [Example 42] , output reported GI50.
< 100 nM

====

target.of.assay: T315I Abl kinase (SEQ ID NO:2) (Homo sapiens, UniProt P00519, T315I)
protocol.summary: T315I Abl kinase (SEQ ID NO:2) assay, pyruvate kinase/lactate dehydrogenase coupled
condition.description: 1 h preincubation, ATP 500 μM; read-out: Biochemical IC50, Abl T315I Enzyme Assay
Experimental: Abl Kinase (SEQ ID NO:2) Assay Activity of T315I Abl kinase (SEQ ID NO:2) was determined by following the production of ADP from the kinase reaction through coupling with the pyruvate kinase/lactate dehydrogenase system (e.g., Schindler, et al. Science (2000) 289, 1938-1942). In this assay, the oxidation of NADH (thus the decrease at A340 nm) was continuously monitored spectrophometrically. […] The reaction rate was calculated using the 1.0 to 2.0 h time frame. […]
pIC50: −log10 of the molar value.
Reported pIC50 by item:

Worked cases, pIC50 given:
molecule: Cc1c(NC(=O)Nc2ccc(Oc3ccnc(-c4cnn(C)c4)c3)cc2F)cnn1C(C)C [Example 19]
pIC50: > 6.00

molecule: Cn1cc(-c2cc(Oc3ccc(NC(=O)Nc4cncc(C(F)(F)F)c4)cc3)ccn2)cn1 [Example 6]
pIC50: > 7.00

molecule: Cn1cc(-c2cc(Oc3ccc(NC(=O)Nc4cnc(C(C)(C)C)nc4N4CCOCC4)c(F)c3)ccn2)cn1 [Example 41]
pIC50: > 4.00

molecule: Cn1cc(-c2cc(Oc3ccc(NC(=O)Nc4cc(C(F)(F)F)nn4C)c(F)c3)ccn2)cn1 [Example 16]
pIC50: > 6.00

Please give the documented pIC50 of Cn1cc(-c2cc(Oc3ccc(NC(=O)NC4CCN(C(C)(C)C)C4)c(F)c3)ccn2)cn1 (centres unmarked) [Example 36]
> 5.00
